From: patent US5672588A

Assay system: adenosine A1 receptor (Rattus norvegicus, UniProt P25099)
Construct: from tissue
Sequence (P25099 1-326): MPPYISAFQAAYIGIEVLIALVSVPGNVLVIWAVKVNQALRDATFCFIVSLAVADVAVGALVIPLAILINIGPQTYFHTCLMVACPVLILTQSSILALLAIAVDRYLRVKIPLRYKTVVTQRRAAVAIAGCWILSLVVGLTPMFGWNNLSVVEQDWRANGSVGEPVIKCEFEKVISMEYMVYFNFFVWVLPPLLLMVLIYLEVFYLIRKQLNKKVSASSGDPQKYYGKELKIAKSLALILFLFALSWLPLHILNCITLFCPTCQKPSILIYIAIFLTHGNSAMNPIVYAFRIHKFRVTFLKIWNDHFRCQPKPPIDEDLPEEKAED
Test description: Adenosine A1 receptor binding in vitro, [3H]-R-PIA radioligand
Condition description: [3H]-R-PIA radioligand; read-out: A1 receptor binding (Ki)
Measurement type: pKi
Just the number, please; pKi means minus log10 of the concentration in mol/L.

query: Please provide the recorded pKi for C[C@H](Cc1ccccc1)Nc1nc(Cl)nc2c1ncn2[C@@H]1O[C@H](CO)[C@@H](O)[C@H]1O , tested on adenosine A1 receptor (Rattus norvegicus, UniProt P25099).
result: 8.40

query: Request - read-out pKi | tested on adenosine A1 receptor (Rattus norvegicus, UniProt P25099) | compound C[C@H](COc1ccc(F)cc1)Nc1nc(Cl)nc2c1ncn2[C@@H]1O[C@H](CO)[C@@H](O)[C@H]1O
result: 7.72

query: I'm curious: which pKi was measured for CC(COc1ccccc1)Nc1ncnc2c1ncn2[C@@H]1O[C@H](CO)[C@@H](O)[C@H]1O (stereo partly shown) tested on adenosine A1 receptor (Rattus norvegicus, UniProt P25099)?
result: 7.74

query: Given the entry OC[C@H]1O[C@@H](n2cnc3c(NCCOCc4ccccc4)nc(Cl)nc32)[C@H](O)[C@@H]1O , what pKi was observed with adenosine A1 receptor (Rattus norvegicus, UniProt P25099)?
result: 6.47

query: Query pKi on adenosine A1 receptor (Rattus norvegicus, UniProt P25099) for CC(CCc1ccccc1)Nc1nc(Cl)nc2c1ncn2[C@@H]1O[C@H](CO)[C@@H](O)[C@H]1O (stereo partly shown)
result: 7.44

Further cases:
query: Recorded pKi for OC[C@H]1O[C@@H](n2cnc3c(NCCOc4ccccc4)nc(Cl)nc32)[C@H](O)[C@@H]1O with adenosine A1 receptor (Rattus norvegicus, UniProt P25099), please?
result: 6.78

query: Notebook entry, adenosine A1 receptor (Rattus norvegicus, UniProt P25099) assay: pKi of COc1nc(N[C@H](C)COc2ccccc2)c2ncn([C@@H]3O[C@H](CO)[C@@H](O)[C@H]3O)c2n1 = ?
result: 7.06

query: So what pKi did C[C@H](COc1ccccc1)Nc1nc(Cl)nc2c1ncn2[C@@H]1O[C@H](CO)[C@@H](O)[C@H]1O get with adenosine A1 receptor (Rattus norvegicus, UniProt P25099)?
result: 7.74

---

Parameter Ratio A2/A1: see the listing below.
Assay system: adenosine A1 receptor (Rattus norvegicus)
Construct: from tissue
Sequence (P25099 1-326): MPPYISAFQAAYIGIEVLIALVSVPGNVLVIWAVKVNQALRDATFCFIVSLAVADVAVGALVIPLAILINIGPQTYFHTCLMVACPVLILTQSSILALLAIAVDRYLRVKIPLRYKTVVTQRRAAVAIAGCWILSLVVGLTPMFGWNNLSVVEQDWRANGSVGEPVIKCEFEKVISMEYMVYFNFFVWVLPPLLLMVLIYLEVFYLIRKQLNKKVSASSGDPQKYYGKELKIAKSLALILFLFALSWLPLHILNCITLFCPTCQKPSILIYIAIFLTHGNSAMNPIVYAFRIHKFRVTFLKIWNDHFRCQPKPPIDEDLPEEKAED
Test description: Adenosine A1 receptor binding in vitro, [3H]-R-PIA radioligand
Condition description: ratio of A2 Ki to A1 Ki
The response must contain the number and no unit.

Would you please look over these solved cases?
query: # query: Ratio A2/A1 of entry CC(COc1ccccc1)Nc1ncnc2c1ncn2[C@@H]1O[C@H](CO)[C@@H](O)[C@H]1O (some centres unmarked)
result: 44

query: Ratio A2/A1 for OC[C@H]1O[C@@H](n2cnc3c(N[C@@H]4CCC[C@@H]4Oc4ccccc4)nc(Cl)nc32)[C@H](O)[C@@H]1O (relative stereo) ?
result: 11

query: Give its Ratio A2/A1 value. Item: C[C@H](COc1ccc(F)cc1)Nc1nc(Cl)nc2c1ncn2[C@@H]1O[C@H](CO)[C@@H](O)[C@H]1O
result: 28

query: What does the record list as Ratio A2/A1 for OC[C@H]1O[C@@H](n2cnc3c(NCCOc4ccccc4)nc(Cl)nc32)[C@H](O)[C@@H]1O ?
result: 19

query: Bench note: what Ratio A2/A1 did COc1nc(N[C@H](C)COc2ccccc2)c2ncn([C@@H]3O[C@H](CO)[C@@H](O)[C@H]3O)c2n1 show?
result: 27

Others:
query: What measured Ratio A2/A1 goes with C[C@H](CSc1ccccc1)Nc1nc(Cl)nc2c1ncn2[C@@H]1O[C@H](CO)[C@@H](O)[C@H]1O ?
result: 60

query: GET /values?readout=Ratio A2/A1&item= CC(COc1ccccc1)Nc1nc(N)nc2c1ncn2[C@@H]1O[C@H](CO)[C@@H](O)[C@H]1O (some centres unmarked)
result: 18

query: Give the measured Ratio A2/A1 of OC[C@H]1O[C@@H](n2cnc3c(NCCOCc4ccccc4)nc(Cl)nc32)[C@H](O)[C@@H]1O .
result: 23

---

Reported pKi values for a set of compounds
Assay system: adenosine A1 receptor (Rattus norvegicus)
Construct: from tissue
Test description: Adenosine A1 receptor binding in vitro, [3H]-R-PIA radioligand
Condition description: [3H]-R-PIA radioligand; read-out: A1 receptor binding (Ki)
// pKi here means minus log10 of the molar concentration (mol/L)

query: # get_value(readout='pKi', item= C[C@@H](COc1ccccc1)Nc1nc(Cl)nc2c1ncn2[C@@H]1O[C@H](CO)[C@@H](O)[C@H]1O )
result: 7.00

query: If you can, please state the reported pKi value of C[C@H](CSc1ccccc1)Nc1nc(Cl)nc2c1ncn2[C@@H]1O[C@H](CO)[C@@H](O)[C@H]1O .
result: 7.82

query: Which value of pKi has been reported for CC(COc1ccccc1)Nc1nc(N)nc2c1ncn2[C@@H]1O[C@H](CO)[C@@H](O)[C@H]1O (some centres unmarked) in the records?
result: 6.91

Others:
query: # input compound: Cc1nc(N[C@H](C)COc2ccccc2)c2ncn([C@@H]3O[C@H](CO)[C@@H](O)[C@H]3O)c2n1 ; wanted: its pKi
result: 7.16

query: Field request: pKi | item: C[C@H](CO)Nc1nc(Cl)nc2c1ncn2[C@@H]1O[C@H](CO)[C@@H](O)[C@H]1O
result: 8.15

query: Entry C[C@H](COc1ccccc1)Nc1nc(F)nc2c1ncn2[C@@H]1O[C@H](CO)[C@@H](O)[C@H]1O has what pKi?
result: 8.10

query: // pKi lookup, key: OC[C@H]1O[C@@H](n2cnc3c(N[C@@H]4CCC[C@H]4Oc4ccccc4)nc(Cl)nc32)[C@H](O)[C@@H]1O (relative stereo)
result: 8.22

query: Look up pKi for this compound: OC[C@H]1O[C@@H](n2cnc3c(N[C@@H]4CCC[C@@H]4Oc4ccccc4)nc(Cl)nc32)[C@H](O)[C@@H]1O (relative stereo)
result: 7.46
